Origin of the recorded values: patent US11685734B2

target.or.test.system: Recombinant, full length human FLAG-tagged ATM (Homo sapiens (Human))
procedure.details: ATM ELISA for p53 S15 phosphorylation
details: 0.75 nM ATM, 25 nM p53, 10 μM ATP, 30 min at 20° C.; read-out: ATM BIO IC50
# key: entry, value: IC50

[
  {
    "structure": "C[C@@H]1CN(c2cc(=O)[nH]c(N3CCC[C@@H]3Cc3ccc(Cl)c(Cl)c3)n2)CCO1",
    "IC50 / nM": 89.7
  },
  {
    "structure": "O=c1cc(C2=CCOCC2)cc(N2CCCCC[C@@H]2Cc2ccccc2)[nH]1",
    "IC50 / nM": 38.7
  },
  {
    "structure": "COc1ccccc1C[C@H]1C[C@@H](C)CCCN1c1nc(N2CCOCC2)cc(=O)[nH]1",
    "IC50 / nM": 35.6
  },
  {
    "structure": "COCCOc1ccc(C[C@H]2CCCCCN2c2nc(N3CCO[C@H](C)C3)cc(=O)[nH]2)cc1",
    "IC50 / nM": 6.2
  }
]

---

# key: entry, value: pIC50
target.or.test.system: Recombinant, full length human FLAG-tagged ATM (Homo sapiens (Human))
procedure.details: ATM ELISA for p53 S15 phosphorylation
details: 0.75 nM ATM, 25 nM p53, 10 μM ATP, 30 min at 20° C.; read-out: ATM BIO IC50
pIC50: −log10 of the molar value.

[
  {
    "compound": "COc1ccccc1CC1CC(F)(F)CCCN1c1nc(N2CCOCC2)cc(=O)[nH]1 (stereo not drawn) [Example 239]",
    "pIC50": 7.44
  },
  {
    "compound": "CC1CCC[C@H](Cc2ccccc2)N(c2nc(N3CCOCC3)cc(=O)[nH]2)C1 (single isomer, unassigned) [Example 246]",
    "pIC50": 7.65
  },
  {
    "compound": "C[C@@H]1CN(c2cc(=O)[nH]c(N3CC[C@@H](F)[C@@H]3Cc3ccccc3)n2)CCO1 [Example 319]",
    "pIC50": 8.28
  },
  {
    "compound": "O=c1cc(N2CCOCC2)cc(N2CC[C@@H](F)[C@@H]2Cc2ccccc2)[nH]1 [Example 96]",
    "pIC50": 8.26
  },
  {
    "compound": "O=c1cc(N2CCOCC2)nc(N2CCC(F)(F)[C@@H]2Cc2ccccc2)[nH]1 [Example 253]",
    "pIC50": 7.95
  },
  {
    "compound": "O=c1cc(N2CCOCC2)nc(N2CC[C@H](O)[C@@H]2Cc2ccccc2)[nH]1 [Example 255]",
    "pIC50": 7.15
  }
]

---

target.or.test.system: cellular ATM activity (Homo sapiens (Human))
Sequence (Q13315 whole entry): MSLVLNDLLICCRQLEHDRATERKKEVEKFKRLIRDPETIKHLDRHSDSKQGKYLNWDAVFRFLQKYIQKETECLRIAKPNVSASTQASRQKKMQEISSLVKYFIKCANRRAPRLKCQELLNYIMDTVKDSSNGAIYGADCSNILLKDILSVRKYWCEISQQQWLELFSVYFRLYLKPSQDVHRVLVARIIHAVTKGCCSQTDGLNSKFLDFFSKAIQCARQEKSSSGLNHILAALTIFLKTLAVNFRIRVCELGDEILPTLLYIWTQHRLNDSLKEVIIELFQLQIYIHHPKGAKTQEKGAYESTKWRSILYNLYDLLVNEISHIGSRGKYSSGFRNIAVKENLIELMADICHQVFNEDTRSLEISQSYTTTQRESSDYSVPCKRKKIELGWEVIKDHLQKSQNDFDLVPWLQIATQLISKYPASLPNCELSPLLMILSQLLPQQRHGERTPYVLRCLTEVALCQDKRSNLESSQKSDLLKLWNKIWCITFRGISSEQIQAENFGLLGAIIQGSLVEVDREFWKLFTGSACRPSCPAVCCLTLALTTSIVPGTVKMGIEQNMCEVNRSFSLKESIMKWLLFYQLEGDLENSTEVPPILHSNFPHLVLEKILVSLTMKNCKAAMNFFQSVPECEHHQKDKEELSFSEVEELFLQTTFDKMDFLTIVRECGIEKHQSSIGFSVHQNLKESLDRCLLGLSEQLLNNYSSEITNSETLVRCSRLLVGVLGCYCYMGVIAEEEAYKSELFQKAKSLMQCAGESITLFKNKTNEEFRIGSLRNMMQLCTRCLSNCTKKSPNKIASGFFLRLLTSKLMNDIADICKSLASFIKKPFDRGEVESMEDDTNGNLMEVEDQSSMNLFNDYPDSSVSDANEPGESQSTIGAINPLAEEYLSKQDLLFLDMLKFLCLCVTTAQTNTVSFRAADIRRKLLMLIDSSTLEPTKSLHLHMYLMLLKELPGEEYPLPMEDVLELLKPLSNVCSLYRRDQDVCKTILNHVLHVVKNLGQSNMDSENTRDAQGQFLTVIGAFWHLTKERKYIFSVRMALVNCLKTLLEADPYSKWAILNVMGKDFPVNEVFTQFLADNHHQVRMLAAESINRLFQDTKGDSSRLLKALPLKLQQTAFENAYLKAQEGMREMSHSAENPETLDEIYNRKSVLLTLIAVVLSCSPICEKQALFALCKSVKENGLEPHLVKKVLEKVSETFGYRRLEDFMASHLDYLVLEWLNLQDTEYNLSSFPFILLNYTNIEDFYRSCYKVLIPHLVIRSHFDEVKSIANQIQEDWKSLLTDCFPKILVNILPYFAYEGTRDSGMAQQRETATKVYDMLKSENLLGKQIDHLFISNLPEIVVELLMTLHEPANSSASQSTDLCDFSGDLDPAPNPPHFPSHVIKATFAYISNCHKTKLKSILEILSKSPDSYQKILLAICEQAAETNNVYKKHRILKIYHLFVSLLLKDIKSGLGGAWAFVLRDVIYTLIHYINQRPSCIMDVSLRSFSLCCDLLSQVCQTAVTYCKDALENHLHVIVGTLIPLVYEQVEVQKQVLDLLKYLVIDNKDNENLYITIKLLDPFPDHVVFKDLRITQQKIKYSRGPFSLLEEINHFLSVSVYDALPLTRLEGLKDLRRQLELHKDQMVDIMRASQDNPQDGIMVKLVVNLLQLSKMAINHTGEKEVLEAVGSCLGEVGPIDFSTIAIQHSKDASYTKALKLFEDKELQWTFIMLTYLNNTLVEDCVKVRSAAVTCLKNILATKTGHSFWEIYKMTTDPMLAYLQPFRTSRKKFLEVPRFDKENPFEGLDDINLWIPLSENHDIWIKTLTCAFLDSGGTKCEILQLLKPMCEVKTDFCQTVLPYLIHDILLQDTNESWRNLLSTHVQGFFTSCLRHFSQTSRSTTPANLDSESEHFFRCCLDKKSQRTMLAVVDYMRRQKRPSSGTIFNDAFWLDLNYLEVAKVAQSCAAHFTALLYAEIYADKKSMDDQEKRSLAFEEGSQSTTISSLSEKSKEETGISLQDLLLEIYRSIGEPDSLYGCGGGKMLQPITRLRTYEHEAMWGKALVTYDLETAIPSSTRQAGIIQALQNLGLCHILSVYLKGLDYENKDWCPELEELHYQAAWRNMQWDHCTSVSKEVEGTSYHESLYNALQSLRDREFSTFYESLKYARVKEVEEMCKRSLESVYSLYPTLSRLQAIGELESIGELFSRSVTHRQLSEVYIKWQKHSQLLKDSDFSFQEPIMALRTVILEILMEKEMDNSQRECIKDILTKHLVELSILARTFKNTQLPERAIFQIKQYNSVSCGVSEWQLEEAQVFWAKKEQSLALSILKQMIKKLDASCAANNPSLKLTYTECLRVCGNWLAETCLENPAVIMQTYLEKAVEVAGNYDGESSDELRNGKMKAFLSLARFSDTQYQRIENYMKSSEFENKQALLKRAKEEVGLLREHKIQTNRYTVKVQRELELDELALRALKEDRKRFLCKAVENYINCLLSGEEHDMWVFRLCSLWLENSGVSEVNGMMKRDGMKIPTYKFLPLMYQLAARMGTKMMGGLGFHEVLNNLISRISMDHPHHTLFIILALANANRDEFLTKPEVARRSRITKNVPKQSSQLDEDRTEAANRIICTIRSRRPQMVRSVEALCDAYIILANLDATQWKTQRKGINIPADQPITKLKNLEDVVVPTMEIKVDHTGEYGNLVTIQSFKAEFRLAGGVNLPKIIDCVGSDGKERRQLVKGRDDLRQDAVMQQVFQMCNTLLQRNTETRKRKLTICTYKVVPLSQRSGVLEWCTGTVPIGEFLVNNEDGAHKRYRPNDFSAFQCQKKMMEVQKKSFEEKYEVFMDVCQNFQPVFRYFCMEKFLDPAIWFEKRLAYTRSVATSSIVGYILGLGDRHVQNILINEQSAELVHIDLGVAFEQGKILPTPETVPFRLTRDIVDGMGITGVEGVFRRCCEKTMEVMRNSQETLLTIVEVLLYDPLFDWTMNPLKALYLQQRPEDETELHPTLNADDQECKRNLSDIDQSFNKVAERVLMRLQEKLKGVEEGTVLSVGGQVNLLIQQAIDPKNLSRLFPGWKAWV
procedure.details: Inhibition of cellular ATM activity: etoposide-stimulated KAP1 phosphorylation in U20S cells
details: 100 μM etoposide, 60 min, read-out: ATM CELL IC50
# key: entry, value: log10 of IC50
measured.metric: log10 of IC50 (log10 of the value in nM)

[
  {
    "molecule": "O=c1cc(N2CCOCC2)nc(N2CC[C@@H](F)[C@@H]2Cc2ccccc2)[nH]1",
    "log10 of IC50": 2.29
  },
  {
    "molecule": "COc1ccc(C[C@H]2CCCN2c2cc(N3CCOCC3)cc(=O)[nH]2)cc1",
    "log10 of IC50": 3.65
  },
  {
    "molecule": "Cn1c(N2CCC[C@@H]2Cc2ccccc2)nc(N2CCOCC2)cc1=O",
    "log10 of IC50": 2.66
  },
  {
    "molecule": "O=c1cc(N2CCOCC2)cc(N2CCCCC[C@@H]2Cc2ccc(F)cc2)[nH]1",
    "log10 of IC50": 2.92
  },
  {
    "molecule": "C[C@@H]1CN(c2cc(N3[C@@H]4CC[C@@H](C4)[C@@H]3Cc3ccccc3)[nH]c(=O)c2)CCO1",
    "log10 of IC50": 2.84
  },
  {
    "molecule": "CC1C[C@H](Cc2ccccc2)N(c2cc(N3CCOCC3)cc(=O)[nH]2)C1 (single isomer, unassigned) [Example 100]",
    "log10 of IC50": 3.21
  },
  {
    "molecule": "CC1(C)CCC[C@H](Cc2ccccc2)N(c2nc(N3CCOCC3)cc(=O)[nH]2)C1",
    "log10 of IC50": 3.09
  },
  {
    "molecule": "COc1ccccc1C[C@H]1[C@H](C)CCN1c1nc(N2CCO[C@H](C)C2)cc(=O)[nH]1",
    "log10 of IC50": 3.27
  },
  {
    "molecule": "COc1ccccc1C[C@H]1[C@H](C)CCN1c1nc(N2CCOCC2)cc(=O)[nH]1",
    "log10 of IC50": 2.70
  },
  {
    "molecule": "C[C@H]1CCCN(c2nc(N3CCOCC3)cc(=O)[nH]2)[C@@H](Cc2ccc(F)cc2)C1",
    "log10 of IC50": 2.64
  },
  {
    "molecule": "C[C@@H]1CN(c2cc(=O)[nH]c(N3C[C@H]4C[C@H]4[C@@H]3Cc3ccccc3)n2)CCO1",
    "log10 of IC50": 2.75
  },
  {
    "molecule": "O=c1cc(N2CCOCC2)cc(N2CCC[C@@H]2Cc2ccccc2)[nH]1",
    "log10 of IC50": 3.53
  },
  {
    "molecule": "O=c1cc(N2CCOCC2)cc(N2CCC[C@@H]2Cc2cccc(OC3CCOCC3)c2)[nH]1",
    "log10 of IC50": 3.27
  },
  {
    "molecule": "O=c1cc(N2CCOCC2)cc(N2CC[C@@H](OC(F)F)[C@@H]2Cc2ccccc2)[nH]1",
    "log10 of IC50": 2.94
  },
  {
    "molecule": "CC1C[C@H](Cc2ccccc2)N(c2cc(N3CCOCC3)cc(=O)[nH]2)C1 (single isomer, unassigned) [Example 101]",
    "log10 of IC50": 3.15
  },
  {
    "molecule": "Cc1ccc(C[C@H]2CCCN2c2cc(N3CCOCC3)cc(=O)[nH]2)cc1",
    "log10 of IC50": 3.47
  },
  {
    "molecule": "COc1ccccc1C[C@H]1[C@@H]2C[C@@H]2CN1c1cc(N2CCOCC2)cc(=O)[nH]1",
    "log10 of IC50": 2.59
  },
  {
    "molecule": "O=c1cc(N2CCOCC2)cc(N2C[C@H]3C[C@H]3[C@@H]2Cc2ccccc2)[nH]1",
    "log10 of IC50": 2.47
  },
  {
    "molecule": "O=c1cc(N2CCOCC2)nc(N2CC3(CC3)C[C@@H]2Cc2ccccc2)[nH]1",
    "log10 of IC50": 2.45
  },
  {
    "molecule": "O=c1cc(N2CCOCC2)cc(N2C[C@H]3CCC[C@H]3[C@@H]2Cc2ccccc2)[nH]1",
    "log10 of IC50": 2.94
  },
  {
    "molecule": "C[C@@H]1CN(c2cc(=O)[nH]c(N3CCC[C@@H]3Cc3ccc(Cl)c(Cl)c3)n2)CCO1",
    "log10 of IC50": 2.99
  },
  {
    "molecule": "COc1cc(F)ccc1C[C@H]1CCCCCN1c1nc(N2CCOCC2)cc(=O)[nH]1",
    "log10 of IC50": 2.88
  },
  {
    "molecule": "CC(C)(c1ccccc1)[C@H]1CCCN1c1nc(N2CCOCC2)cc(=O)[nH]1",
    "log10 of IC50": 2.99
  },
  {
    "molecule": "O=c1cc(N2CCOCC2)cc(N2CCCCC[C@@H]2Cc2ccccn2)[nH]1",
    "log10 of IC50": 3.25
  },
  {
    "molecule": "C[C@H]1CCCN(c2nc(N3CCOCC3)cc(=O)[nH]2)[C@@H](Cc2ccccc2)C1",
    "log10 of IC50": 2.51
  },
  {
    "molecule": "CO[C@@H]1CCN(c2cc(N3CCOCC3)cc(=O)[nH]2)[C@H]1Cc1ccccc1",
    "log10 of IC50": 3.22
  },
  {
    "molecule": "O=c1cc(N2CCOCC2)cc(N2CCC(F)(F)[C@@H]2Cc2ccccc2)[nH]1",
    "log10 of IC50": 2.97
  },
  {
    "molecule": "COc1ccc(F)cc1C[C@H]1CCCCCN1c1cc(N2CCOCC2)cc(=O)[nH]1",
    "log10 of IC50": 3.14
  },
  {
    "molecule": "COc1cccc(C[C@H]2CCCCCN2c2cc(N3CCOCC3)cc(=O)[nH]2)c1",
    "log10 of IC50": 2.72
  },
  {
    "molecule": "O=c1cc(N2CCOCC2)nc(N2C[C@H]3C[C@H]3[C@@H]2Cc2ccccc2)[nH]1",
    "log10 of IC50": 2.13
  },
  {
    "molecule": "CC1(C)CCCN(c2cc(N3CCOCC3)cc(=O)[nH]2)[C@@H](Cc2ccccc2)C1",
    "log10 of IC50": 3.43
  },
  {
    "molecule": "C[C@@H]1CN(c2cc(=O)[nH]c(N3CCC[C@@H]3Cc3ccc(F)cc3)n2)CCO1",
    "log10 of IC50": 2.80
  }
]
